# Tested on: HRE-bla ME-180 cells
# ASSAY REMARKS: Reporter gene assay (HRE-bla ME-180 HIF reporter, GeneBLAzer)
# Assay type: cell-based, human
# RECORDED CONDITIONS: 24 hour normoxia
Bridge positions count the residues as written; N and C are the ends. Square brackets hold non-standard residues; d marks the D form. Peptide text beside a SMILES is read from it. R8 = C=CCCCCCC[C@@](C)(N)C(=O)O; S5 = C=CCCC[C@](C)(N)C(=O)O; Nle = CCCC[C@H](N)C(=O)O
Below, each of the molecules is paired with its reported EC50 value.
PROPERTY NAME: EC50

- CCCC[C@H](NC(=O)[C@@]1(C)CCCC=CCCCC2(CCCC=CCCC[C@](C)(NC(=O)[C@H](CCC(=O)O)NC(=O)[C@H](CC(=O)O)NC(=O)[C@@H](NC(=O)[C@H](Cc3ccccc3)NC(C)=O)[C@@H](C)CC)C(=O)N[C@@H](C(C)C)C(=O)N[C@@H](CC(C)C)C(=O)N[C@@H](CCC(=O)O)C(=O)N2)C(=O)N[C@@H](CC(C)C)C(=O)N[C@@H](C(C)C)C(=O)N[C@@H]([C@@H](C)CC)C(=O)N1)C(=O)N[C@@H](C)C(=O)N[C@@H](CC(C)C)C(N)=O (stereo partly shown): > 30 µM
- CC[C@H](C)[C@H](NC(=O)[C@H](Cc1ccccc1)NC(C)=O)C(=O)N[C@@H](CC(=O)O)C(=O)N[C@@H](CCC(=O)O)C(=O)N[C@]1(C)CCCCCCC=CCCC[C@@](C)(C(=O)N[C@@H](CCC(=O)O)C(=O)N[C@@H](CCSC)C(=O)N[C@@H](C)C(=O)N[C@@H](CC(C)C)C(=O)N[C@@H](CC(=O)O)C(N)=O)NC(=O)[C@H](C(C)C)NC(=O)[C@H](CC(C)C)NC(=O)[C@H](CO)NC(=O)[C@H](CCSC)NC(=O)[C@H](CC(C)C)NC(=O)[C@H](C(C)C)NC1=O [SP-176] (Ac-FIDE[R8]VLMSLV[S5]EMALD-NH2; staple 5-12): > 30 µM
- CCCC[C@@H]1NC(=O)[C@H](CC(C)C)NC(=O)[C@H](C(C)C)NC(=O)[C@@](C)(NC(=O)[C@H](CCC(=O)O)NC(=O)[C@H](CC(=O)O)NC(=O)[C@@H](NC(=O)[C@H](Cc2ccccc2)NC(C)=O)[C@@H](C)CC)CCCC=CCCC[C@@](C)(C(=O)N[C@@H](CC(C)C)C(=O)N[C@H](C(=O)N[C@H](C(=O)N[C@@H](CCC(=O)O)C(=O)N[C@@H](CO)C(=O)N[C@@H](C)C(=O)N[C@@H](CC(C)C)C(N)=O)[C@@H](C)CC)C(C)C)NC1=O [SP-147] (Ac-FIDE[S5]VL[Nle][S5]LVIESAL-NH2; staple 5-9): 15 to 30 µM
- CCCC[C@H](NC(=O)[C@H](C)NC(=O)[C@H](CCSC)NC(=O)[C@]1(C)CCCC=CCCC[C@](C)(NC(=O)[C@H](CCSC)NC(=O)[C@H](CC(C)C)NC(=O)[C@@H](NC(=O)[C@H](CCC(=O)O)NC(=O)[C@H](CCC(=O)O)NC(=O)[C@H](CC(=O)O)NC(=O)[C@@H](NC(=O)[C@H](Cc2ccccc2)NC(C)=O)[C@@H](C)CC)C(C)C)C(=O)N[C@@H](CC(C)C)C(=O)N[C@@H](C(C)C)C(=O)N[C@@H]([C@@H](C)CC)C(=O)N1)C(N)=O [SP-227] (Ac-FIDEEVLM[S5]LVI[S5]MA[Nle]-NH2; staple 9-13): > 30 µM
